Let's look at some compounds and their measured IC50.
Molecular target: human CMV DNA polymerase UL54 (Human cytomegalovirus (strain AD169) (HHV-5) (Human herpesvirus 5), UniProt P08546)
Assay: CMV polymerase biochemical assay (molecular beacon-based)
Description: Both human CMV DNA polymerase UL54 and human HSV DNA polymerase UL30 were produced as N-terminal MBP fusion of the full length, wild type recombinant proteins in order to enhance soluble expression in insect cell expression system. The proteins were expressed in sf9 insect cells via baculovirus transduction and cells were harvested after 48 hours. […] DNA polymerase activity was measured using a molecular beacon-based assay, as described in Ma et. al. […]
Give the number; nM is assumed, so skip it.

These recorded examples may help you get a feel for the data.
{"compound": "Cc1cc(C(=O)NCc2ccc(C#N)cc2)c(=O)n2c1C(=O)N(CC1(S(=O)(=O)C3CC3)CC1)CC2", "testResult": 1.1}
{"compound": "CC(=O)NS(=O)(=O)C1(CN2CCn3c(ccc(C(=O)NCc4ccc(C#N)cc4)c3=O)C2=O)CC1", "testResult": 1.6}
{"compound": "CC(C)(C(=O)O)S(=O)(=O)C1(CN2CCn3c(ccc(C(=O)NCc4ccc(Cl)cc4)c3=O)C2=O)CC1", "testResult": 0.8}
{"compound": "O=C(NCc1ccc(Cl)cc1)c1ccc2n(c1=O)CCN(CC1(S(=O)(=O)CC3(C(F)(F)F)CC3)CC1)C2=O", "testResult": 18.6}
{"compound": "CC(C)(C)NS(=O)(=O)C1(CN2CCn3c(ccc(C(=O)NCc4ccc(C#N)cc4)c3=O)C2=O)CC1", "testResult": 1.5}

Q: Given O=C(NCc1ccc(Cl)cc1)c1ccc2n(c1=O)CCN(CCC1CCCS1(=O)=O)C2=O (stereo not shown) , respond with its IC50.
A: 35.6

Q: Note IC50 for the compound shown: CC1(CS(=O)(=O)C2(CN3CCn4c(ccc(C(=O)NCc5ccc(Cl)cc5)c4=O)C3=O)CC2)COC1
A: 9.4

The values you see were collected from patent US12466821B2.
